Target system: ePHF (human, UniProt P10636)
Sequence (P10636 2-758): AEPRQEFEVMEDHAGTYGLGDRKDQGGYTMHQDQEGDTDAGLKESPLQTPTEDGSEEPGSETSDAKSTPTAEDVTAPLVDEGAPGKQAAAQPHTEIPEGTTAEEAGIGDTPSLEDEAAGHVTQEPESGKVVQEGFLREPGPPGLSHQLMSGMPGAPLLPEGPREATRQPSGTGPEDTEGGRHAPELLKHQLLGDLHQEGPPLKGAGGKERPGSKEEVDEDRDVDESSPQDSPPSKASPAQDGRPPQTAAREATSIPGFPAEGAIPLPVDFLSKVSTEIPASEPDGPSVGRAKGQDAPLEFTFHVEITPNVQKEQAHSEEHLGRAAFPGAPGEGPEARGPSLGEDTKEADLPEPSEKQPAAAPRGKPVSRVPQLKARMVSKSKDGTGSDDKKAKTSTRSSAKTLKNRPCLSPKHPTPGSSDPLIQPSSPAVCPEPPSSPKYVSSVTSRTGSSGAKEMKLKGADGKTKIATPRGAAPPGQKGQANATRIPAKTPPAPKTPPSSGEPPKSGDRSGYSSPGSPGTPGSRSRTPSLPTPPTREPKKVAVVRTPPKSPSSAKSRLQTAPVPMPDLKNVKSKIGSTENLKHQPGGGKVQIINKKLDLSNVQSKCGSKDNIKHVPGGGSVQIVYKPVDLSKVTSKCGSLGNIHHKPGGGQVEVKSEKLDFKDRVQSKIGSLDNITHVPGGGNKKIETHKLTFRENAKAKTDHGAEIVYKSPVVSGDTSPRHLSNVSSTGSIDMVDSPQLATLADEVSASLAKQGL
Experimental details: ELISA
Exercise: state measured pEC50 for each of the binders provided.
Interpret pEC50 as the negative base-10 log of the concentration measured in mol/L.

**Q:** In one line, give reported pEC50 of the entry Ab6 (antibody, V domains shown, enriched paired helical filament tau, hyperphosphorylated) VH: QVQLVESGAEVKKPGASVKVSCKASGFTFTRYWMHWVKERPGHGLEWMGNINPNNGGTDFNEKFKNRVTITVHKSASTAYMELSSLRSEDTAVYYCARGTGTGAMDYWGQGTTVTVSS VL: DIVMTQSPLSLSVTPGQPASISCRSSQSLVHNNGITYLYWYLQKPGQSPQLLIYRVSNRFSGVPDRFSGSGSGTDFTLKISRVEAEDVGVYYCFQGTHVPRTFGQGTKVEIK .
**A:** 9.80

**Q:** In one line, give reported pEC50 of the entry Ab11 (antibody, V domains shown, enriched paired helical filament tau, hyperphosphorylated) VH: QVQLVQSGAEVKKPGASVKVSCKASGFTFTRYWMHWVKERPGQGLEWMGNINPNNGGTDFNEKFKNRVTMTVHKSTSTVFIQLSSLRSEDTAVYYCARGTGTGAMDYWGQGTSVTVSS VL: DVVMTQSPLSLPVTLGQPASISCRSSQSLVHNNGITYLYWYQQRPGQSPRLLIYRVSNRFSGVPDRFSGSGSGTDFTLKISRVEAEDVGVYYCFQGTHVPRTFGQGTKLEIK .
**A:** 9.80

**Q:** In one line, give reported pEC50 of the entry Ab8 (antibody, V domains shown, enriched paired helical filament tau, hyperphosphorylated) VH: QVQLVQSGAEVKKSGASVKVSCKASGFTFTRYWMHWVRQAPGQGLEWIGNINPNNGGTDFNEKFKNRVTLIRDTSTTTVFIQLTSLTSEDSAVYYCARGTGTGAMDYWGQGTLVTVSS VL: DVVMTQSPLSLPVTLGQPASISCRSSQSLVHNNGITYLYWYQQRPGQSPRLLIYRVSNRFSGVPDRFSGSGSGTDFTLKISRVEAEDVGVYYCFQGTHVPRTFGQGTKLEIK .
**A:** 9.77

**Q:** In one line, give reported pEC50 of the entry Ab5 (antibody, V domains shown, enriched paired helical filament tau, hyperphosphorylated) VH: QVQLVQSGAEVKKPGASVKVSCKASGFTFTRYWMHWVKERPGQGLEWMGNINPNNGGTDFNEKFKNRVTMTVHKSTSTVFIQLSSLRSEDTAVYYCARGTGTGAMDYWGQGTSVTVSS VL: DIVMTQTPLSSPVTLGQPASISCRSSQSLVHNNGITYLYWYQQRPGQPPRLLIYRVSNRFSGVPDRFSGSGAGTDFTLKINRVEAEDVGVYFCFQGTHVPRTFGQGTKLEIK .
**A:** 9.72

**Q:** In one line, give reported pEC50 of the entry Ab2 (antibody, V domains shown, enriched paired helical filament tau, hyperphosphorylated) VH: QVQLVESGAEVKKPGASVKVSCKASGFTFTRYWMHWVKERPGHGLEWMGNINPNNGGTDFNEKFKNRVTITVHKSASTAYMELSSLRSEDTAVYYCARGTGTGAMDYWGQGTTVTVSS VL: DVVMTQSPLSLPVTLGQPASISCRSSQSLVHNNGITYLYWYQQRPGQSPRLLIYRVSNRFSGVPDRFSGSGSGTDFTLKISRVEAEDVGVYYCFQGTHVPRTFGQGTKLEIK .
**A:** 9.82

**Q:** In one line, give reported pEC50 of the entry hV0022 control (antibody, V domains shown, enriched paired helical filament tau, hyperphosphorylated) VH: QVQLQQPGTELVKPGSSVNLSCKASGFTFTRYWMHWVKERPGHGLEWIGNINPNNGGTDFNEKFKNKATLTVHKSSTTVFIQLSSLTSEDSAVYYCARGTGTGAMDYWGQGTSVTVSS VL: DVVMTQTPLSLPVSLGDQASISCRSSQSLVHNNGITYLYWYLQKPGQSPKLLIYRVSNRFSGVPDRFGGSGSGTDFTLKISRVEAEDLGVYFCFQGTHVPRTFGGGTKLEIK .
**A:** 10.10

**Q:** In one line, give reported pEC50 of the entry Ab9 (antibody, V domains shown, enriched paired helical filament tau, hyperphosphorylated) VH: EVQLVQSGAEVKKPGSSVKVSCKASGFTFTRYWMHWVKERPGHGLEWIGNINPNNGGTDFNEKFKNRVTMTVHKSITTAYMELSRLTSDDSAVYYCARGTGTGAMDYWGQGTLVSVSS VL: DIVMTQSPLSLSVTPGQPASISCRSSQSLVHNNGITYLYWYLQKPGQSPQLLIYRVSNRFSGVPDRFSGSGSGTDFTLKISRVEAEDVGVYYCFQGTHVPRTFGQGTKVEIK .
**A:** 10.00

**Q:** In one line, give reported pEC50 of the entry Ab3 (antibody, V domains shown, enriched paired helical filament tau, hyperphosphorylated) VH: EVQLVQSGAEVKKPGSSVKVSCKASGFTFTRYWMHWVKERPGHGLEWIGNINPNNGGTDFNEKFKNRVTMTVHKSITTAYMELSRLTSDDSAVYYCARGTGTGAMDYWGQGTLVSVSS VL: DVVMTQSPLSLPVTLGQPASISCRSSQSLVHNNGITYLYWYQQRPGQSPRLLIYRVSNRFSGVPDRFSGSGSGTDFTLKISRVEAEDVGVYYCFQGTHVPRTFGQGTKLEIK .
**A:** 10.02

**Q:** In one line, give reported pEC50 of the entry Ab7 (antibody, V domains shown, enriched paired helical filament tau, hyperphosphorylated) VH: QVQLVQSGAEVKKPGASVKVSCKASGFTFTRYWMHWVRERPGHGLEWIGNINPNNGGTDFNEKFKNRVTMTVHKSISTAYMELSSLRSDDSAVYYCARGTGTGAMDYWGQGTLVTVSS VL: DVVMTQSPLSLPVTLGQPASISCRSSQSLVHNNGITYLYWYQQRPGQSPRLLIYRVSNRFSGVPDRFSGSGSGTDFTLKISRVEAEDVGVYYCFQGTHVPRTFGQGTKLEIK .
**A:** 9.89
